For each of the compounds below, state its log10 of Kd.
Molecular target: GDP-bound KRAS wild-type protein (Homo sapiens, UniProt P01116)
Sequence (P01116 whole entry): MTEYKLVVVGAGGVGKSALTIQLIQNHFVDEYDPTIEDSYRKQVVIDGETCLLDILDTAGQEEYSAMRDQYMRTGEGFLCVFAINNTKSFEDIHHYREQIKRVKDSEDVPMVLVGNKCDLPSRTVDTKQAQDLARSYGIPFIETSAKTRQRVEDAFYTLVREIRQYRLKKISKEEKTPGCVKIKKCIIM
Experiment: Binding to KRAS by surface plasmon resonance (SPR), Single Cycle Kinetics
Details: SPR, Single Cycle Kinetics, GDP-bound KRAS wild-type protein; read-out: KRAS KD
Recorded Kd (log10, pM)

Some solved cases for reference:
[
  {
    "compound": "CCO[C@@H]1C[C@H]2C(=O)NC3(CC(F)(F)C3)C(=O)N(C)[C@@H](C3CCCC3)C(=O)N(C)[C@H](C(=O)N3CCOCC3)CC(=O)N(C)[C@@H](CC(C)C)C(=O)N[C@@H]([C@@H](C)CC)C(=O)N(C)CC(=O)N(C)[C@H]3C[C@H]4C[C@H]4CN(C3=O)[C@@H](Cc3ccc(C(F)(F)F)cc3)C(=O)N(C)CC(=O)N[C@@H](CCc3cc(F)c(C(F)(F)F)c(F)c3)C(=O)N2C1 [PP0831]",
    "log10 of Kd": 2.51
  },
  {
    "compound": "CCC[C@H]1C(=O)N[C@@H]([C@@H](C)CC)C(=O)N(C)CC(=O)N(C)[C@H]2C/C=C\\CCN(C2=O)[C@@H](Cc2ccc(C(F)(F)F)cc2)C(=O)N(C)CC(=O)N[C@@H](CCc2cc(F)c(C(F)(F)F)c(F)c2)C(=O)N2C[C@H](OCC)C[C@H]2C(=O)NC2(CC(C)(C)C2)C(=O)N(C)[C@@H](C2CCCC2)C(=O)N(C)[C@H](C(=O)N2CCC2)CC(=O)N1C [PP1943]",
    "log10 of Kd": 2.04
  },
  {
    "compound": "CCC[C@H]1C(=O)N[C@@H]([C@@H](C)CC)C(=O)N(C)CC(=O)N(C)[C@H]2C/C=C\\CCN(C2=O)[C@@H](Cc2ccc(C(F)(F)F)cc2)C(=O)N(C)CC(=O)N[C@@H](CCc2cc(F)c(C(F)(F)F)c(F)c2)C(=O)N2C[C@H](OCC)C[C@H]2C(=O)NC2(CC(C)(C)C2)C(=O)N(C)[C@@H]([C@@H](C)CC)C(=O)N(C)[C@H](C(=O)N(C)C)CC(=O)N1C [PP1941]",
    "log10 of Kd": 2.23
  },
  {
    "compound": "CCO[C@@H]1C[C@H]2C(=O)NC3(CC(C)(C)C3)C(=O)N(C)[C@@H](C(CC)CC)C(=O)N(C)[C@H](C(=O)N(C)C)CC(=O)N(C)[C@@H](C(C)C)C(=O)N[C@@H]([C@@H](C)CC)C(=O)N(C)CC(=O)N(C)[C@H]3C/C=C\\CCN(C3=O)[C@@H](Cc3ccc(C)cc3)C(=O)N(C)CC(=O)N[C@@H](CCc3ccc(C(F)(F)F)c(OC)c3)C(=O)N2C1 [PP2173]",
    "log10 of Kd": 2.74
  }
]

Quick request: log10 of Kd for each listed item, please.
1. CC[C@H](C)[C@@H]1NC(=O)[C@H](COC)N(C)C(=O)C[C@@H](C(=O)N(CC)CC)N(C)C(=O)[C@H](C2CCCC2)N(C)C(=O)C2(CC(C)(C)C2)NC(=O)[C@@H]2C[C@H](C)CN2C(=O)[C@H](CCc2ccc(C(F)(F)F)c(Cl)c2)NC(=O)CN(C)C(=O)[C@H](Cc2ccc(C)cc2)N2CC/C=C\C[C@@H](C2=O)N(C)C(=O)CN(C)C1=O [PP2399]
2. CCO[C@@H]1C[C@H]2C(=O)NC3(CC(C)(C)C3)C(=O)N(C)[C@@H](C3CCCC3)C(=O)N(C)[C@H](CC)CC(=O)N(C)[C@@H](CC3CC3)C(=O)N[C@@H]([C@@H](C)CC)C(=O)N(C)CC(=O)N(C)[C@H]3C/C=C\CCN(C3=O)[C@@H](Cc3ccc(C(F)(F)F)cc3)C(=O)N(C)CC(=O)N[C@@H](CCc3cc(F)c(C(F)(F)F)c(F)c3)C(=O)N2C1 [PP1629]
3. CCCN1CC(=O)N(C)[C@H]2C/C=C\CCN(C2=O)[C@@H](Cc2ccc(C)cc2)C(=O)N(C)CC(=O)N[C@@H](CCc2ccc(C(F)(F)F)c(OC)c2)C(=O)N2C[C@H](OCC)C[C@H]2C(=O)NC2(CC(C)(C)C2)C(=O)N(C)[C@@H](C2CCCC2)C(=O)N(C)[C@H](C(=O)N(C)C)CC(=O)N(C)[C@@H](CC)C(=O)N[C@@H]([C@@H](C)CC)C1=O [PP2096]
4. CCCOC[C@H]1C(=O)N[C@@H]([C@@H](C)CC)C(=O)N2CCC[C@H]2C(=O)N(C)[C@H]2C/C=C\CCN(C2=O)[C@@H](Cc2ccc(C)cc2)C(=O)N(C)CC(=O)N[C@@H](CCc2ccc(C(F)(F)F)c(OC)c2)C(=O)N2C[C@@H](C)C[C@H]2C(=O)N(C)C2(CCC2)C(=O)N(C)[C@@H](C2CCCC2)C(=O)N(C)[C@H](C(=O)N(C)C)CC(=O)N1C [PP2369]
5. CCO[C@@H]1C[C@H]2C(=O)NC3(CC(C)(C)C3)C(=O)N(C)[C@@H](C3CCCC3)C(=O)N(C)[C@H](C(=O)N(C)C)CC(=O)N(C)[C@@H](CC3CC3)C(=O)N[C@@H]([C@@H](C)CC)C(=O)N(C)CC(=O)N(C)[C@H]3C/C=C\CCN(C3=O)[C@@H](Cc3ccc(C(F)(F)F)cc3)C(=O)N(C)CC(=O)N[C@@H](CCc3ccc(C(F)(F)F)c(Cl)c3)C(=O)N2C1 [PP1749]
6. CCCOC[C@H]1C(=O)N[C@@H]([C@@H](C)CC)C(=O)N(C)CC(=O)N(C)[C@H]2C/C=C\CCN(C2=O)[C@@H](Cc2ccc(C)cc2)C(=O)N(C)CC(=O)N[C@@H](CCc2ccc(C(F)(F)F)c(OC)c2)C(=O)N2C[C@@H](C)C[C@H]2C(=O)NC2(CC(C)(C)C2)C(=O)N(C)[C@@H](C2CCCC2)C(=O)N(C)[C@H](C(=O)N(C)C)CC(=O)N1C [PP2447]
7. CCO[C@@H]1C[C@H]2C(=O)NC3(CCC3)C(=O)N(C)[C@@H](C3CCCC3)C(=O)N(C)[C@H](C3CCC3)CC(=O)N(C)[C@@H](CC3CC3)C(=O)N[C@@H]([C@@H](C)CC)C(=O)N(C)CC(=O)N(C)[C@H]3C/C=C\CCN(C3=O)[C@@H](Cc3ccc(C(F)(F)F)cc3)C(=O)N(C)CC(=O)N[C@@H](CCc3cc(F)c(C(F)(F)F)c(F)c3)C(=O)N2C1 [PP1637]

Marked response:
[2.49, 2.56, 2.62, 1.79, 1.59, 2.04, 2.51]

All figures here come from patent US20240158446A1.
